- Tested Target: pooled human IgG
Endpoint: Enzyme Activity Endpoint Assay: Fab′2

The measured Enzyme Activity Endpoint Assay: Fab′2 associated with PRT-21 (protein) MANQEIRYSEVSPSTVTSVWTKGVTPPTNFTYGEDVLHAPYVANQGWYDITKTFNGKDDLLCGAATAGNMLHWWFDQNKEQIENYLKKHPEKQKINFNGEQMFDVKEAIDTKDSQLDSKLFEYFKEKAFPYLSTKHLGVFPDHVIDMFINGYRLSLTNHGPTPVKRGSKDPRGGIFDAVFTRGDQSKLLTNRHDFKEKTLKEISDLIKQELTEGKALGISHTYANVRINHVINLWGADFDAEGNLEAIYVTDSDSNASIGMKKYFVGVNSNGKVAISAKEIEEDNIGAQVLGLFTLSTGQDIWNQTN reads 33 ng/µL

Where these numbers come from: patent US20250027068
